Sourced from a melting point compilation (Tetko et al.; mined from patent text by program, amines drawn as free bases though some values may be those of a salt)

value.type: melting point (°C)

molecule: CN1CCN(C(=O)c2cc([N+](=O)[O-])cc3c2OCCO3)CC1
units: °C
melting point: 218
//
molecule: FC(F)(F)c1ccc2[nH]nc(-c3ccccc3)c2c1
units: °C
melting point: 152
//
molecule: CCOC(=O)C(C(=O)Nc1nccs1)C(=O)c1cccc(C(F)(F)F)c1NC(=O)C(Cl)C(C)C (stereo not given)
units: °C
melting point: 160
//
molecule: Cn1c(O)nc2cc(Cn3ccnc3)ccc21
units: °C
melting point: 207

====

value.type: melting point

Example compounds with recorded melting point:
compound: O=C(c1cccc(F)c1)N1Cc2c(-c3ccc(F)cc3)ncn2-c2ccccc21
value.type: melting point
value.reported: 176 to 177 °C
//
compound: COc1ccccc1C=C1CS(=O)(=O)CC(=Cc2ccccc2OC)C1=O
value.type: melting point
value.reported: 198 to 200 °C
//
compound: COc1ccc(C=C2c3ccccc3CCc3ccccc32)cc1N
value.type: melting point
value.reported: 62.7 °C

Would you mind telling me what melting point value was observed for `Brc1ccn2nc(Br)nc2c1` ?
183 to 184 °C

Would you mind telling me what melting point value was observed for Cc1ccc(S(=O)(=O)N2CC[C@@H](C)[C@@H]2c2ccc(F)cc2)cc1 (racemic) ?
112 °C

====

Catalogue of melting point readings, one per entry.

Example compounds with recorded melting point:
compound: CC1CCc2c(N3CCCC3)ccc3c(=O)c(C(=O)O)cn1c23 (stereo not given)
value.type: melting point
value.reported: 170 to 174 °C
--
compound: CCc1ccc2c(C=O)c3ccccc3c(C=O)c2c1
value.type: melting point
value.reported: 99 to 100 °C
--
compound: NS(=O)(=O)c1cc(Cl)c(Cl)c(Cl)c1
value.type: melting point
value.reported: 190 to 191 °C
--
compound: COC(=O)c1cc(=O)c2cc(OC)cc([N+](=O)[O-])c2o1
value.type: melting point
value.reported: 192 to 193 °C
--
compound: CSC(Nc1cccc(CNC(=O)OC(C)(C)C)c1)=C(C#N)C#N
value.type: melting point
value.reported: 150 to 151 °C
--
compound: Cn1nnnc1Cc1ccc2c(c1)c(C1=CCN(CCN3CCNC3=O)CC1)cn2-c1ccc(F)cc1
value.type: melting point
value.reported: 174 to 176 °C

Would you mind telling me what melting point value was observed for `Cc1ccsc1C(=O)Nc1ccc(C(=O)N2Cc3ccccc3Cc3ccccc32)cc1` ?
201 to 204 °C

Would you mind telling me what melting point value was observed for `Nc1nc2ccccc2c2c1nc(COc1ccccc1)n2CCOc1ccccc1` ?
168 to 170 °C

Would you mind telling me what melting point value was observed for `COc1cc(Sc2ccncc2)cc2ccoc12` ?
81 to 83 °C

Would you mind telling me what melting point value was observed for `Nc1ccccc1S(=O)(=O)c1cc(C(=O)O)ccc1Cl` ?
235 to 238 °C

Would you mind telling me what melting point value was observed for `Cc1c(CC(=O)OCCO[N+](=O)[O-])cc(-c2ccc(S(C)(=O)=O)cc2)n1-c1ccc(F)cc1` ?
110 to 112 °C

Would you mind telling me what melting point value was observed for `CC(C)(C)Nc1cc(Cl)nc(NC(C)(C)C)n1` ?
128 to 130 °C

Would you mind telling me what melting point value was observed for CN(C)C(=S)SC(C[N+](=O)[O-])c1cccs1 (stereo not given) ?
88 to 90 °C

====

value.type: melting point

compound: CC(C)(c1ccc(Oc2cccc(N3C(=O)C=CC3=O)c2)cc1)c1ccc(C(C)(C)c2ccc(Oc3cccc(N4C(=O)C=CC4=O)c3)cc2)cc1
value.reported: 192 to 193 °C

compound: COc1ccc(N2CCN(Cc3n[nH]c4ccccc34)CC2)cc1
value.reported: 167 to 168 °C

compound: CNC1Oc2cc(Cl)cc(-c3ccccc3Cl)c2O1 (configuration not stated)
value.reported: > 250 °C

compound: CC(=O)OCc1[nH]c2c(c1C)C(=O)C(N1CC1)=C(C)C2=O
value.reported: 210 to 212 °C

compound: COCCNC(=O)c1cccc(-c2ccc3c(c2)C(c2cc(Cl)ccc2Cl)CC3)c1 (configuration not stated)
value.reported: 116 °C

compound: CCCCc1ncc([N+](=O)[O-])c(O)n1
value.reported: 67 to 69 °C

compound: N#CC(C#N)=CN(N=C(C#N)C#N)c1cccc(F)c1
value.reported: 134 to 135 °C

compound: O=C(O)c1cc(=O)c2cc(-c3ccccc3)ccc2s1
value.reported: 220 °C

Would you mind telling me what melting point value was observed for `CNC(=O)Nc1cc(-c2ccc(S(C)(=O)=O)cc2)c(-c2ccc(F)cc2)s1` ?
70 to 75 °C

Would you mind telling me what melting point value was observed for `CSc1c(CC(=O)O)n(Cc2ccc(Cl)cc2)c2ccc(CF)cc12` ?
136 to 140 °C

Would you mind telling me what melting point value was observed for `CN1CC(=O)Nc2ccc(-c3cccc([N+](=O)[O-])c3)cc21` ?
237 to 243 °C

====

Catalogue of melting point readings, one per entry.

Example compounds with recorded melting point:
compound: COc1ccc(N2CCN(c3c(C)c(C)c4c(c3C)C(O)(c3ccc(F)cc3)C(C)(C)O4)CC2)cc1 (configuration not stated)
value.type: melting point
value.reported: 142 to 144 °C
--
compound: CCOC(=O)COc1ccc2cc(-c3cc4ccccc4s3)ccc2c1Cl
value.type: melting point
value.reported: 187 to 188 °C
--
compound: Cc1nn(C)c2c(O)nc(C(C)C)nc12
value.type: melting point
value.reported: 264 to 266 °C
--
compound: CSc1nc(Cl)c(C#N)c(N2CCc3ccccc3CC2)n1
value.type: melting point
value.reported: 144 to 150 °C

Continue with the next compound.
Would you mind telling me what melting point value was observed for `CC(C)c1[nH]nc2c1C(=O)c1c(NC(=O)CN3CCC(CN)CC3)cccc1-2` ?
218 to 220 °C

====

Catalogue of melting point readings, one per entry.

compound: CC(C)c1ccccc1-n1c(=O)[nH]c2c(C(N)=O)nc(-c3cccc(O)c3)nc21
value.type: melting point
value.reported: 322 to 324 °C

compound: Clc1ccccc1CN1CC=C(c2cc3ccccc3s2)CC1
value.type: melting point
value.reported: 105 to 106 °C

compound: Oc1ccc([C@@H]2C[C@H]2c2ccccc2)cc1 (relative stereo)
value.type: melting point
value.reported: 78 to 79 °C

compound: OC1CSC(Oc2cccc(-c3ncccc3Cl)c2)C(O)C1O (stereo not given)
value.type: melting point
value.reported: 217 °C

compound: Cc1cc(Oc2ccc(C(F)(F)F)cc2Cl)cc(C)c1NC(=O)C1C(=O)N(C)C(=S)N(C)C1=O
value.type: melting point
value.reported: 171 to 173 °C

Would you mind telling me what melting point value was observed for `O=C1OCCN1N=C1CCOc2ccccc21` ?
105 to 108 °C

Would you mind telling me what melting point value was observed for `O=c1c2ccccc2oc2c(CBr)cccc12` ?
191 to 192 °C

Would you mind telling me what melting point value was observed for `CCCCc1nn(-c2ccc(C(F)(F)F)cn2)cc1CCCOc1nn(C)cc1CC(=O)O` ?
125 to 126 °C

Would you mind telling me what melting point value was observed for `CCSc1nc(NC(C)=O)ccc1[N+](=O)[O-]` ?
168 °C

Would you mind telling me what melting point value was observed for `CCOC(=O)C(O)(CC(=O)c1ccc(-c2ccccc2)cc1)C(=O)OCC` ?
88 to 88.3 °C

Would you mind telling me what melting point value was observed for `COc1ccc(/C(=C/C=C/C(=O)O)C(C)C)cc1` ?
132 to 133 °C

Would you mind telling me what melting point value was observed for `COc1ccc2nc(-c3cc(C)c(OCCN4CCCC4)c(C)c3)[nH]c(=O)c2c1` ?
201 to 203 °C

====

Catalogue of melting point readings, one per entry.

compound: O=C1N[C@H]2OC(c3ccccc3)=N[C@@H]12
melting point: 159 °C

Would you mind telling me what melting point value was observed for `N#CCCNC(=O)c1cccc(-c2cccc3oc(Cc4cccc(C(F)(F)F)c4)cc23)c1` ?
107 to 108 °C

Would you mind telling me what melting point value was observed for `CN(CCCCP(=O)(O)O)S(=O)(=O)C(F)(F)C(F)(F)C(F)(F)C(F)(F)C(F)(F)C(F)(F)C(F)(F)C(F)(F)F` ?
150 to 163 °C

====

Catalogue of melting point readings, one per entry.

Example compounds with recorded melting point:
compound: COC(=O)c1cc(=O)c2cc3[nH]c(=O)oc3cc2[nH]1
value.reported: 297 °C
--
compound: CC1(C)Oc2ccc(C#N)cc2[C@@H](O)[C@@H]1Br (relative stereo)
value.reported: 128 °C
--
compound: Cc1cc(C(=O)Nc2ccc(S(=O)(=O)C(F)(F)F)cc2Cl)c(O)c(C23CC4CC(CC(C4)C2)C3)c1
value.reported: 203 to 204 °C
--
compound: COC(=N)c1ncn(C2OC(CO)C(O)C2O)n1 (stereo not given)
value.reported: 150 to 153 °C
--
compound: CC(=O)Nc1ccc2nc(CN(C(C)C)C(C)C)ccc2c1
value.reported: 147 to 148 °C

Would you mind telling me what melting point value was observed for `Cc1nc(-n2cc(OCc3ccccc3)ccc2=O)sc1C(=O)NCc1ccccc1` ?
166 to 167 °C

Would you mind telling me what melting point value was observed for `O=C(O)CCCCC=Cc1cc(-c2ccccc2)c2ccccc2n1` ?
152 to 154 °C

Would you mind telling me what melting point value was observed for `COC(=O)NCCc1cccc(C(=O)C=CN(C)C)c1` ?
95 to 97 °C

Would you mind telling me what melting point value was observed for `O=C1C=C(NC(=O)C(=O)c2cn(Cc3ccc(Cl)cc3)c3cccc(NC(=O)c4ccc(Cl)cc4)c23)CO1` ?
> 300 °C

Would you mind telling me what melting point value was observed for `CN1CCN(C2=Nc3ccc(F)cc3Nc3sc4cc(Br)ccc4c32)CC1` ?
219 to 221 °C
